72 kDa type IV collagenase (Homo sapiens) data, read-out IC50
Sequence (P08253 whole entry): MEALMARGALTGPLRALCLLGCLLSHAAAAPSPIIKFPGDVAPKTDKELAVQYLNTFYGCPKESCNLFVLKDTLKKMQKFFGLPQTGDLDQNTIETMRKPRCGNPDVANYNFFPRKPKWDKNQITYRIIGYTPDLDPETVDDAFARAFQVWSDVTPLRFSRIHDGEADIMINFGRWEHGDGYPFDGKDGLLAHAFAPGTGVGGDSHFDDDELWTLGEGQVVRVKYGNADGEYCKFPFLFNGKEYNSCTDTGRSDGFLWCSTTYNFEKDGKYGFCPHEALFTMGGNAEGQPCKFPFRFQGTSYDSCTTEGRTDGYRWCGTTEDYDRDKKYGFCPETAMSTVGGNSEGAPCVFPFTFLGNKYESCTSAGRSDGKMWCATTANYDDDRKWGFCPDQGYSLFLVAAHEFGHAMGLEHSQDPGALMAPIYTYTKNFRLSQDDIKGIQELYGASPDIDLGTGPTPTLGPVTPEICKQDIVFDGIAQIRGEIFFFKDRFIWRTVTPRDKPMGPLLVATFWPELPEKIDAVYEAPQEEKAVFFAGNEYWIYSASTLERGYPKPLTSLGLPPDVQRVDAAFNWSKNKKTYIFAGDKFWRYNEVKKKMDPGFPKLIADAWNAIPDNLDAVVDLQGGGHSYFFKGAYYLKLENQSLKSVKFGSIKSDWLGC
Measure name: IC50 (µM)

I = Cc1cc(C#N)ccc1C1CCN(S(=O)(=O)CC2(C(=O)NO)CCN(C(=O)OC[C@H]3CCCN3)CC2)CC1
II = Cc1ccccc1C1CCN(S(=O)(=O)CC2(C(=O)NO)CCN(C(=O)OC3CCCC3O)CC2)CC1 (trans isomer)
API: POST /compare with I and II ; response names the item with higher IC50. Write the label of whichever entry you select.
I
(I: 1.38 µM, II: 0.537 µM)

----------
target: Disintegrin and metalloproteinase domain-containing protein 10 (Homo sapiens, UniProt O14672); assay: Inhibition of HER2 sheddase in human BT474 cells; format: cell-based, BT-474
Measure name: IC50 (nM)

Look over these answered cases.
Compound	Unit of measurement	IC50
Cc1ccccc1C1=CCN(S(=O)(=O)CC2(C(=O)NO)CCN(C(=O)O[C@H]3CCOC3)CC2)CC1	nM	133
Cc1ccccc1C1CCN(S(=O)(=O)CC2(C(=O)NO)CCN(C(=O)OC3(C)CCOC3)CC2)CC1 (stereo not drawn)	nM	36
Cc1cc(C#N)ccc1C1=CCN(S(=O)(=O)CC2(C(=O)NO)CCN(C(=O)OC[C@H]3CCCN3)CC2)CC1	nM	19
O=C(O[C@H]1CCOC1)N1CCC(CS(=O)(=O)N2CC=C(c3ccccc3)C2)(C(=O)NO)CC1	nM	102
Cc1ccccc1C1CCN(S(=O)(=O)CC2(C(=O)NO)CCN(C(=O)OC[C@H]3CCCN3)CC2)CC1	nM	30

I = Cc1cc(C#N)ccc1C1CCN(S(=O)(=O)CC2(C(=O)NO)CCN(C(=O)OC[C@@H]3CCCN3)CC2)CC1
II = Cc1cc(C#N)ccc1N1CCN(S(=O)(=O)CC2(C(=O)NO)CCN(C(=O)O[C@H]3CCOC3)CC2)CC1
Dear colleague, could you let me know whether I or II has the lower recorded IC50? Thanks. Write the label of whichever entry you select.
I

----------
target: Disintegrin and metalloproteinase domain-containing protein 10 (Homo sapiens, UniProt O14672)
Measure name: IC50 (nM)

Molecule	Unit of measurement	IC50
Cc1ccccc1C1CCN(S(=O)(=O)CC2(C(=O)NO)CCN(C(=O)OC3(C)CCOC3)CC2)CC1 (stereo not drawn)	nM	11
Cc1cc(C#N)ccc1C1=CCN(S(=O)(=O)CC2(C(=O)NO)CCN(C(=O)OC[C@H]3CCCN3)CC2)CC1	nM	24
Cc1ccccc1C1CCN(S(=O)(=O)CC2(C(=O)NO)CCN(C(=O)OC[C@H]3CCCN3)CC2)CC1	nM	19
Cc1cc(C#N)ccc1C1CCN(S(=O)(=O)CC2(C(=O)NO)CCN(C(=O)OC[C@H]3CCCN3)CC2)CC1	nM	11

P = O=C(O[C@H]1CCOC1)N1CCC(CS(=O)(=O)N2CC=C(c3ccccc3)CC2)(C(=O)NO)CC1
Q = Cc1cc(C)cc(C2CCN(S(=O)(=O)CC3(C(=O)NO)CCN(C(=O)O[C@H]4CCOC4)CC3)CC2)c1
Dear colleague, could you let me know whether P or Q has the lower recorded IC50? Thanks. Write the label of whichever entry you select.
P

----------
target: Disintegrin and metalloproteinase domain-containing protein 10 (Homo sapiens, UniProt O14672); assay: Inhibition of HER2 sheddase in human BT474 cells; type: cell-based, BT-474
Measure name: IC50 (nM)

Look over these answered cases.
Compound	Measure name	Endpoint result
O=C(O[C@H]1CCOC1)N1CCC(CS(=O)(=O)N2CCC(c3ccccc3)C2)(C(=O)NO)CC1 (some centres not stated)	IC50	358
Cc1cc(C)cc(C2CCN(S(=O)(=O)CC3(C(=O)NO)CCN(C(=O)O[C@H]4CCOC4)CC3)CC2)c1	IC50	833
Cc1cc(C#N)ccc1C1=CCN(S(=O)(=O)CC2(C(=O)NO)CCN(C(=O)O[C@H]3CCOC3)CC2)CC1	IC50	45
Cc1ccccc1C1CCN(S(=O)(=O)CC2(C(=O)NO)CCN(C(=O)O[C@H]3CCOC3)CC2)CC1	IC50	41
Cc1cc(C#N)ccc1C1CCN(S(=O)(=O)CC2(C(=O)NO)CCN(C(=O)OC[C@H]3CCCN3)CC2)CC1	IC50	23

1 = Cc1ccccc1C1CCN(S(=O)(=O)CC2(C(=O)NO)CCN(C(=O)OC3CCNC3)CC2)CC1 (configuration not stated)
2 = N#Cc1ccc(C2CCN(S(=O)(=O)CC3(C(=O)NO)CCN(C(=O)O[C@H]4CCOC4)CC3)CC2)cc1
3 = Cc1cc(C#N)ccc1C1=CCN(S(=O)(=O)CC2(C(=O)NO)CCN(C(=O)OC[C@@H]3CCCN3)CC2)CC1
4 = Cc1ccccc1N1CCN(S(=O)(=O)CC2(C(=O)NO)CCN(C(=O)O[C@H]3CCOC3)CC2)CC1
Hey, can you sort those compounds up there by IC50, smallest first? Form entry: labels listed in requested order.
1, 3, 2, 4
(1: 16 nM, 3: 27 nM, 2: 77 nM, 4: 217 nM)

----------
Biological target: Disintegrin and metalloproteinase domain-containing protein 10 (Homo sapiens, UniProt O14672)
Sequence (O14672 whole entry): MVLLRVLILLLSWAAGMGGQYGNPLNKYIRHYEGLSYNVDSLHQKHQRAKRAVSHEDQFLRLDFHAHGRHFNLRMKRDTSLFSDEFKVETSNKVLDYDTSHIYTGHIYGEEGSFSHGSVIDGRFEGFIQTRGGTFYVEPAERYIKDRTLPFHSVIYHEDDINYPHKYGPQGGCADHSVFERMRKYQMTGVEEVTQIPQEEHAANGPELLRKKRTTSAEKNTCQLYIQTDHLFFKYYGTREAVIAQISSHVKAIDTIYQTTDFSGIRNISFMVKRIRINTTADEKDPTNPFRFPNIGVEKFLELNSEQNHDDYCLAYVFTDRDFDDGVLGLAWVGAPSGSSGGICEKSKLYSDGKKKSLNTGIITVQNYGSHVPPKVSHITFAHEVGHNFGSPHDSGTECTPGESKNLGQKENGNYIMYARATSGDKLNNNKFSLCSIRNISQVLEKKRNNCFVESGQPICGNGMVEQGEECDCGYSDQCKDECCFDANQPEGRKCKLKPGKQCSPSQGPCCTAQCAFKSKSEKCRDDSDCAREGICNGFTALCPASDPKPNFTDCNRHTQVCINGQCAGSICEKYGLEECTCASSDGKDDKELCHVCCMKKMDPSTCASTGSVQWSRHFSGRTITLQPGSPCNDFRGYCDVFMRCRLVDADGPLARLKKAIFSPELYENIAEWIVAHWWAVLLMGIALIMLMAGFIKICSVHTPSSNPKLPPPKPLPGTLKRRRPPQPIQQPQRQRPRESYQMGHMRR
pIC50: −log10 of the molar value.
Measure name: pIC50

Look over these answered cases.
Molecule	pIC50
Cc1ccccc1C1CCN(S(=O)(=O)CC2(C(=O)NO)CCN(C(=O)OC3COCC3(C)C)CC2)CC1 (stereo unspecified)	7.66
Cc1ccccc1C1CCN(S(=O)(=O)CC2(C(=O)NO)CCN(C(=O)OC[C@@H]3CCCN3)CC2)CC1	7.47

a = Cc1cc(C#N)ccc1N1CCN(S(=O)(=O)CC2(C(=O)NO)CCN(C(=O)O[C@H]3CCOC3)CC2)CC1
b = O=C(O[C@H]1CCOC1)N1CCC(CS(=O)(=O)N2CCC(c3ccccc3)C2)(C(=O)NO)CC1 (stereo partly specified)
c = O=C(O[C@H]1CCOC1)N1CCC(CS(=O)(=O)N2CCC(c3ccccc3C(F)(F)F)CC2)(C(=O)NO)CC1
d = Cc1ccccc1C1CCN(S(=O)(=O)CC2(C(=O)NO)CCN(C(=O)OC3CCCC3O)CC2)CC1 (trans isomer)
Order these by pIC50, descending, and give the full ranking. Form entry: labels listed in requested order.
d, a, b, c
(d: 7.80, a: 7.59, b: 6.58, c: 5.98)

----------
Matrix metalloproteinase-9 (Homo sapiens, UniProt P14780) data, read-out IC50
Sequence (P14780 whole entry): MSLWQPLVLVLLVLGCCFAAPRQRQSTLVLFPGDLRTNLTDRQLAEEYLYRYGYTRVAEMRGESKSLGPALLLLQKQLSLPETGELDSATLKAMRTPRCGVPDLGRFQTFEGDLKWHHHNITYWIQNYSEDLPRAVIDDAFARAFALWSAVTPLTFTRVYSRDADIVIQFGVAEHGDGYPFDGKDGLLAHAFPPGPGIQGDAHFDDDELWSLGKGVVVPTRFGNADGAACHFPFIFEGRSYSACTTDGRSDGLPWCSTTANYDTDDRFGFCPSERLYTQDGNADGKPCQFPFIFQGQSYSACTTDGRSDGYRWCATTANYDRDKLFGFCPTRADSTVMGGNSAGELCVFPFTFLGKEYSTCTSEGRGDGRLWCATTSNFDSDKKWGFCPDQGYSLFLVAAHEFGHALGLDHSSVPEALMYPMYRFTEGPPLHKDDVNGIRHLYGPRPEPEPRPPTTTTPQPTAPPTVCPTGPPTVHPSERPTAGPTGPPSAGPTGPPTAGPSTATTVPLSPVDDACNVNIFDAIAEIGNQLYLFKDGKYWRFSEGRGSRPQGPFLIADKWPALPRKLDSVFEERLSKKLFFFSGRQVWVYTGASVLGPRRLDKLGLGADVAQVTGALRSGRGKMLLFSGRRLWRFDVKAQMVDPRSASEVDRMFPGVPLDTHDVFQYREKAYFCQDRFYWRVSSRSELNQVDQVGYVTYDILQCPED
Measure name: IC50 (nM)

O=C(O[C@H]1CCOC1)N1CCC(CS(=O)(=O)N2CCC(c3ccccc3F)CC2)(C(=O)NO)CC1 100
O=C(O[C@H]1CCOC1)N1CCC(CS(=O)(=O)N2CCN(c3ccccc3)CC2)(C(=O)NO)CC1 78

----------
molecular target: Disintegrin and metalloproteinase domain-containing protein 10 (Homo sapiens, UniProt O14672); assay: Inhibition of HER2 sheddase in human BT474 cells; assay type: cell-based, BT-474
pIC50: −log10 of the molar value.
Measure name: pIC50

Compound	pIC50
Cc1cc(C#N)ccc1C1CCN(S(=O)(=O)CC2(C(=O)NO)CCN(C(=O)O[C@H]3CCOC3)CC2)CC1	7.85
Cc1cc(C#N)ccc1C1CCN(S(=O)(=O)CC2(C(=O)NO)CCN(C(=O)OC3CCNC3)CC2)CC1 (stereo not drawn)	7.89

I = O=C(O[C@H]1CCOC1)N1CCC(CS(=O)(=O)N2CCN(c3ccccc3)CC2)(C(=O)NO)CC1
II = Cc1ccccc1C1CCN(S(=O)(=O)CC2(C(=O)NO)CCN(C(=O)OC[C@@H]3CCCN3)CC2)CC1
III = Cc1ccccc1C1CCN(S(=O)(=O)CC2(C(=O)NO)CCN(C(=O)OC3CCCC3O)CC2)CC1 (trans isomer)
IV = Cc1cc(F)ccc1C1CCN(S(=O)(=O)CC2(C(=O)NO)CCN(C(=O)O[C@H]3CCOC3)CC2)CC1
Hey, can you sort those compounds up there by pIC50, smallest first? Form entry: labels listed in requested order.
IV, II, I, III
(IV: 6.85, II: 7.64, I: 7.89, III: 8.21)
